FYI, the data here is from the supplement of paper PMC9254222.

- Tested on: HEK293T (UBE3A T485A transfected, BAR Wnt reporter)
- procedure-details: Renilla luciferase signal (cell health) relative to plate median (fold (linear ratio)); higher = higher Renilla signal
- condition-label: concentration: 1 uM; 24 h
The full ranking holds about 1,100 compounds; the median of “Renilla luciferase signal (cell health) relative to plate median” is about 0.97, and the highest 2% start at about 1.6. The entries come from a sample that favours the highest values as a whole.
property-measured: Renilla luciferase signal

O=C1CN(N=Cc2ccc([N+](=O)[O-])o2)C(=O)N1 [Nitrofurantoin]    1.01
COC(=O)CCCCC(=O)OC [Dimethyl adipate]    0.917
CCCCOC(=O)[C@@H](C)Oc1ccc(Oc2ccc(C(F)(F)F)cn2)cc1 [Fluazifop-P-butyl]    1.05
O=C1CCC(N2C(=O)c3ccccc3C2=O)C(=O)N1 (centres undefined) [Thalidomide]    0.818
O=C(O)c1cc(/N=N/c2ccc(S(=O)(=O)Nc3ccccn3)cc2)ccc1O [Sulfasalazine]    0.885
Nc1ccc(S(=O)(=O)c2ccc(N)cc2)cc1 [Dapsone]    1.07
CN(C)C(=O)Nc1ccc(Cl)c(Cl)c1 [Diuron]    1.06
CCCCCCCC(=O)OC [Methyl octanoate]    0.911
CCNc1cccc(C)c1 [N-Ethyl-3-methylaniline]    0.916
Oc1cc2ccccc2c2ccccc12 [9-Phenanthrol]    1.05
CCCCCCCCCCCC(=O)OC [Methyl dodecanoate]    0.792
CC(C)CC(C=O)NC(=O)C(CC(C)C)NC(=O)C(CC(C)C)NC(=O)OCc1ccccc1 (centres undefined)    0.0628
Cn1cc[nH]c1=S [Methimazole]    0.23
CCOC(=O)C(C)Oc1ccc(Oc2cnc3cc(Cl)ccc3n2)cc1 (centres undefined) [Quizalofop-ethyl]    0.993
Cc1cccc(Nc2cc(Cl)nc(SCC(=O)O)n2)c1C [Pirinixic acid]    0.871
CCOCCO [2-Ethoxyethanol]    1.26
CC(=O)OC1CC(C)OC(C)O1 (centres undefined) [Dimethoxane]    1.1
CCNc1nc(N)nc(Cl)n1 [Deisopropylatrazine]    0.951
CC(C)(O)c1ccc(CNC(=O)c2cccnc2Oc2ccc3nonc3c2)cc1    0.975
CC[C@H](C)C(=O)O[C@H]1C[C@H](O)C=C2C=C[C@H](C)[C@H](CC[C@@H](O)C[C@@H](O)CC(=O)[O-])[C@H]21.[Na+] [Pravastatin sodium]    0.866
O=[N+]([O-])c1ccc([O-])cc1.[Na+] [Sodium 4-nitrophenolate]    0.86
Cc1ccc2oc(CN(Cc3ccccc3)C(=O)Nc3c(F)cc(F)cc3F)c(-c3ccc(Cl)cc3)c2c1    0.858
COCCO [2-Methoxyethanol]    0.98
Cc1c(C)c2c(c(C)c1O)CCC(C)(COc1ccc(CC3SC(=O)NC3=O)cc1)O2 (centres undefined) [Troglitazone]    0.982
CNCc1ccc(NC(=O)c2c[nH]c3c2C(=O)CCC3)cc1    0.8
CC=Cc1ccc(O)c(OC)c1 [Isoeugenol]    1.01
c1ccc2occc2c1 [2,3-Benzofuran]    0.78
CNCc1cc(F)ccc1Oc1ccc(Cl)c(Cl)c1    0.874
Cc1c(C)c2c(c(C)c1O)CCC(C)(CCCC(C)CCCC(C)CCCC(C)C)O2 (stereo not drawn) [Vitamin E (alpha-tocopherol)]    0.963
O=C1OC(=O)C2C3C=CC(C3)C12 (centres undefined) [2-Norbornene-5,6-dicarboxylic anhydride]    0.853
CCCCOC(=O)C(C)Oc1ccc(Oc2ccc(C(F)(F)F)cn2)cc1 (centres undefined) [Fluazifop-butyl]    1.04
CCc1c(C(=O)NN2CCCCC2)nn(-c2ccc(Cl)cc2Cl)c1-c1ccc(Br)cc1 [Surinabant]    1.07
C#C[C@]1(O)CC[C@H]2[C@@H]3CCC4=CC(=O)CC[C@@H]4[C@H]3CC[C@@]21C [Norethindrone]    0.982
NC(=O)N/N=C/c1ccc([N+](=O)[O-])o1 [Nitrofurazone]    1.13
C=CCCCCCCCCC(=O)O [10-Undecenoic acid]    0.883
CCCOC(=O)NCCCN(C)C.Cl [Propamocarb hydrochloride]    0.949
Cc1nc(C)nc(N2C[C@@H](C)N(c3ccnc([C@@H](C)O)n3)[C@@H](C)C2)n1    1.05
Sc1nc2ccccc2s1 [2-Mercaptobenzothiazole]    0.791
CC1(C)C(=O)N(Cl)C(=O)N1Cl [1,3-Dichloro-5,5-dimethylhydantoin]    1.06
